Measured values drawn from patent US20190119389A1 for this set.

measured-target: T1, Human NRP-1 His (human, UniProt O14786 22-856)
T1 construct: Recombinant monomeric protein; Biotinylated in the MSD-SET assay; also called hNRP-1; not shown: His tag
T1 sequence (O14786 22-856 V179A limits assumed): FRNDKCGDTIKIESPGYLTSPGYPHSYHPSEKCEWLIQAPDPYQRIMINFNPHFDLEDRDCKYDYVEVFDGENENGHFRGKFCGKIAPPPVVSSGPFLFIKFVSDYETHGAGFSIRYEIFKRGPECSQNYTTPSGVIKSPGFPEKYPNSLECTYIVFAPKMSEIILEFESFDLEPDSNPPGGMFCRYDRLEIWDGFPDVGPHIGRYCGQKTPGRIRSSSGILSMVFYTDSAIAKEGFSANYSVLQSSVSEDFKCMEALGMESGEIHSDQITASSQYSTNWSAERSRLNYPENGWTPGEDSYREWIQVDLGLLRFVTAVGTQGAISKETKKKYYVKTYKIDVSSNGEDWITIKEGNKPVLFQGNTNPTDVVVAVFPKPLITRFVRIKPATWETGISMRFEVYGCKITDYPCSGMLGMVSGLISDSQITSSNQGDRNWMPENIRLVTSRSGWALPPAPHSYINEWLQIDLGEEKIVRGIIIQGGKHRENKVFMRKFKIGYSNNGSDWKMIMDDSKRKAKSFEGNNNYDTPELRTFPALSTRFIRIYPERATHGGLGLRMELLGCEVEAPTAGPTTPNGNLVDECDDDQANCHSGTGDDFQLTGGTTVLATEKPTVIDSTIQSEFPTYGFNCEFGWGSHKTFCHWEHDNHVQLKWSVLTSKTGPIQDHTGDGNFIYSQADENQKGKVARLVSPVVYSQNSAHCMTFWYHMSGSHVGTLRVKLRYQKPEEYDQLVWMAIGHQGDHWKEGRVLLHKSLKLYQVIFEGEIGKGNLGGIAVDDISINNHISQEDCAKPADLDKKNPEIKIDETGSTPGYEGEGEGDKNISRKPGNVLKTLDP
protocol-text: MSD-SET solution equilibrium titration, Fab
parameter-measured: pKd
API: returns pKd as number; meaning -log10 of concentration in mol/L.

binder: MAB12 Fab (Fab, V domains shown) VH: EVQLLESGGGLVQPGGSLRLSCAASGFTFSSVAMVWVRQAPGKGLEWVSAISGSGGATYYADSVEGRFTISRDNSKNTLYLQMNSLRAEDTAVYYCAKDPGYDSSRYYYSNYGMDVWGQGTTVTVSS VL: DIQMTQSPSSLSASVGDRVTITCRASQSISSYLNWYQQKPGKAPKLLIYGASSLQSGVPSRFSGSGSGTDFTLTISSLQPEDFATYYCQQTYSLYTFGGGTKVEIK
pKd: 10.59
--
binder: MAB4 Fab (Fab, V domains shown) VH: QVQLVQSGAEVKKPGASVKVSCKASGYTFSRYYMHWVRQAPGQGLEWMGIINPLGGSTLYAQKFQGRVTMTRDTSTSTVYMELSSLRSEDTAVYYCARDLGYYGSGMHVWGQGTLVTVSS VL: DIQMTQSPSSVSASVGDRVTITCRASQGISRWLAWYQQKPGKAPKLLIYAASSLQSGVPSRFSGSGSGTDFTLTISSLQPEDFATYYCQQANLLPFTFGGGTKVEIK
pKd: 10.34

Okay, next one:
Which value of pKd has been reported for MAB9 Fab (Fab, V domains shown) VH: EVQLLESGGGLVQPGGSLRLSCAASGFTFKSYAMVWVRQAPGKGLEWVSIISGSGGATYYADSVKGRFTISRDNSKNTLYLQMNSLRAEDTAVYYCAKDPGYDSSRYYYSNYGMDVWGQGTTVTVSS VL: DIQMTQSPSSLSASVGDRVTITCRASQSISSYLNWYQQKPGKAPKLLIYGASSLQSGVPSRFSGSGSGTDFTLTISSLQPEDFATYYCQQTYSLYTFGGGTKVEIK in the records?
10.72
